Attribute: relative viability
# Tested on: NCI-H1755
# protocol notes: relative viability (nuclei count vs DMSO), 5 days (fraction); higher = more cells survive
# details: first compound 0.01 µM
// no unit string in output, number only

compound	relative viability
CC(C)Oc1cc(Nc2nc(N[C@@H](C)c3ccc(F)cn3)ncc2Cl)n[nH]1 [AZ23] + CS(=O)(=O)CCNCc1ccc(-c2ccc3ncnc(Nc4ccc(OCc5cccc(F)c5)c(Cl)c4)c3c2)o1 [Lapatinib] (partner 2 µM)	1.28

Simply: CC(C)Oc1cc(Nc2nc(N[C@@H](C)c3ccc(F)cn3)ncc2Cl)n[nH]1 [AZ23] + Nc1ncn([C@H]2C[C@H](O)[C@@H](CO)O2)c(=O)n1 [Decitabine] (partner 2 µM) , NCI-H1755, relative viability = 0.844

Simply: CC(C)Oc1cc(Nc2nc(N[C@@H](C)c3ccc(F)cn3)ncc2Cl)n[nH]1 [AZ23] + CC1(C)CCC(c2ccc(Cl)cc2)=C(CN2CCN(c3ccc(C(=O)NS(=O)(=O)c4ccc(N[C@H](CCN5CCOCC5)CSc5ccccc5)c(S(=O)(=O)C(F)(F)F)c4)cc3)CC2)C1 [Navitoclax] (partner 0.5 µM) , NCI-H1755, relative viability = 1.17

Simply: CC(C)Oc1cc(Nc2nc(N[C@@H](C)c3ccc(F)cn3)ncc2Cl)n[nH]1 [AZ23] + O=C(CCCCCCC(=O)Nc1ccccc1)NO [Vorinostat] (partner 1 µM) , NCI-H1755, relative viability = 0.854

Simply: CC(C)Oc1cc(Nc2nc(N[C@@H](C)c3ccc(F)cn3)ncc2Cl)n[nH]1 [AZ23] + C[C@]1(O)C[C@@H](c2nc(-c3ccc4ccc(-c5ccccc5)nc4c3)c3c(N)nccn32)C1 [Linsitinib] (partner 1 µM) , NCI-H1755, relative viability = 1.13

Simply: CC(C)Oc1cc(Nc2nc(N[C@@H](C)c3ccc(F)cn3)ncc2Cl)n[nH]1 [AZ23] + Nc1nc2[nH]cc(CCc3ccc(C(=O)N[C@@H](CCC(=O)O)C(=O)O)cc3)c2c(=O)[nH]1 [Pemetrexed] (partner 0.2 µM) , NCI-H1755, relative viability = 0.401

* * *

# Tested on: IA-LM
# protocol notes: relative viability (nuclei count vs DMSO), 5 days (fraction); higher = more cells survive
# details: first compound 0.04 µM
Attribute: relative viability
// no unit string in output, number only

compound	relative viability
Clc1ccc(Nc2nnc(Cc3ccncc3)c3ccccc23)cc1 [Vatalanib] + C[C@@H](Oc1cc(-c2cnn(C3CCNCC3)c2)cnc1N)c1c(Cl)ccc(F)c1Cl [Crizotinib] (partner 1 µM)	0.649
COc1cc(N2CCC(C(N)=O)CC2)ccc1Nc1nc(N)c(Cl)c(Nc2ccccc2S(=O)(=O)C(C)C)n1 [HG-5-88-01] + O=C(CCCCCCC(=O)Nc1ccccc1)NO [Vorinostat] (partner 1 µM)	1.03
COc1cc(N2CCC(C(N)=O)CC2)ccc1Nc1nc(N)c(Cl)c(Nc2ccccc2S(=O)(=O)C(C)C)n1 [HG-5-88-01] + C[C@]1(O)C[C@@H](c2nc(-c3ccc4ccc(-c5ccccc5)nc4c3)c3c(N)nccn32)C1 [Linsitinib] (partner 1 µM)	0.602
C[C@@H]1CN(CC(=O)Nc2ccc3c(c2)Cc2cccc(-c4cc(=O)cc(N5CCOCC5)o4)c2S3)C[C@H](C)O1 + CC(C)C[C@H](NC(=O)[C@H](Cc1ccccc1)NC(=O)c1cnccn1)B(O)O [Bortezomib] (partner 0.002 µM)	0.669

// switching to the query compound
Clc1ccc(Nc2nnc(Cc3ccncc3)c3ccccc23)cc1 [Vatalanib] + C[C@]1(O)C[C@@H](c2nc(-c3ccc4ccc(-c5ccccc5)nc4c3)c3c(N)nccn32)C1 [Linsitinib] (partner 1 µM) yielded relative viability of 0.763
